testTarget: IGF2 (Homo sapiens, UniProt P01344)
Sequence (P01344 25-91): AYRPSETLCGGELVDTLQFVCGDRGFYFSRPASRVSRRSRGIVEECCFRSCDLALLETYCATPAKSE
experimentSummary: SPR (Biacore T200) of recombinant IGF2R domain 11 mutants on immobilised biotinylated IGF2
Assay type: binding
Set-up: purchased GroPep
assayConditions: Table 2
testReadout: Kinetics kon (M⁻¹ s⁻¹)
Numbers only here, please. The scale is M⁻¹ s⁻¹.

// below: answered molecules
molecule="WT + 26C (HI-DMQT): wild-type domain 11 with HI loop DMQT (clone 26C) (protein) MKSNEHDDCQVTNPSTGHLFDLSSLSGRAGFTAAYSEKGLVYMSICGENENCPPGVGACFGQTRISVGKANKRLRYVDQVLQLVYKDGSPCPSKSGLSYKSVISFVCRPEAGPTNRPMLISLDMQTCTLFFSWHTPLACEQATECSV" observedvalue=1.89e+06
molecule="AB5 + 51F (HI-NRQS): domain 11 AB5 with HI loop NRQS (clone 51F) (protein) MKSNEHDDCQVTNPSTGHLFDLSSLSGRAGFTAAYAKGWGVYMSICGENENCPPGVGACFGQTRISVGKANKRLRYVDQVLQLVYKDGSPCPSKSGLSYKSVISFVCRPEAGPTNRPMLISLNRQSCTLFFSWHTPLACEQATECSV" observedvalue=7.4e+06
molecule="AB3 P1597H: domain 11 AB3 + FG loop P1597H (protein) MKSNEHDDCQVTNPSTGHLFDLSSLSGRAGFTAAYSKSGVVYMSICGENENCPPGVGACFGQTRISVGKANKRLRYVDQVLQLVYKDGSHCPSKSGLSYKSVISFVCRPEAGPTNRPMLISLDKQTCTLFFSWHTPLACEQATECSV" observedvalue=1.06e+07
molecule="WT + 312G (HI-VKLM): wild-type domain 11 with HI loop VKLM (clone 312G) (protein) MKSNEHDDCQVTNPSTGHLFDLSSLSGRAGFTAAYSEKGLVYMSICGENENCPPGVGACFGQTRISVGKANKRLRYVDQVLQLVYKDGSPCPSKSGLSYKSVISFVCRPEAGPTNRPMLISLVKLMCTLFFSWHTPLACEQATECSV" observedvalue=1.07e+06
molecule="AB3: IGF2R domain 11 with AB loop mutations E1544K, K1545S, L1547V (YSKSGV) (protein) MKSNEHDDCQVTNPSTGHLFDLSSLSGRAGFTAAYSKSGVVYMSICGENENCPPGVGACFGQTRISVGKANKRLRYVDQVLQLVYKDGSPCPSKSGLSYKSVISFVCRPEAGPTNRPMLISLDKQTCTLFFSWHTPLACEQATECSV" observedvalue=2.76e+06

Prompt: Consider the molecule shown here: AB3 Q1569R: domain 11 AB3 + CD loop Q1569R (protein) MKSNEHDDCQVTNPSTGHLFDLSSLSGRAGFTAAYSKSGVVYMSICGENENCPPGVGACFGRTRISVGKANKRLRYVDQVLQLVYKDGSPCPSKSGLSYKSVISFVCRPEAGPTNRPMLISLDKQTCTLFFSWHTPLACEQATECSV What is its recorded Kinetics kon?
Response: 1.36e+07

Prompt: Consider the molecule shown here: WT + 27G (HI-NMAL): wild-type domain 11 with HI loop NMAL (clone 27G) (protein) MKSNEHDDCQVTNPSTGHLFDLSSLSGRAGFTAAYSEKGLVYMSICGENENCPPGVGACFGQTRISVGKANKRLRYVDQVLQLVYKDGSPCPSKSGLSYKSVISFVCRPEAGPTNRPMLISLNMALCTLFFSWHTPLACEQATECSV What is its recorded Kinetics kon?
Response: 2e+06

Hello, the source for this data is patent US10494415B2, in case you need it.
